# procedure details: Elimination half life in Beagle dog at 240 mg/kg, po dosed for 14 days by LC/MS/MS method
# Type: ADME, organism-based, Canis lupus familiaris
# Set-up: dose 240 mg/kg, route oral
# condition context: in vivo, read-out: beta t1/2 (converted)
observation type: half-life (h)

>>> reported("CN(C)[C@H](CS(C)(=O)=O)c1ccc(-c2ccc3ncnc(Nc4ccc(OCc5cccc(F)c5)c(Cl)c4)c3c2)o1")
4.8

###

# procedure details: Mean residence time in Beagle dog at 240 mg/kg, po dosed for 14 days by LC/MS/MS method
# Assay type: ADME, organism-based, Canis lupus familiaris
# Set-up: dose 240 mg/kg, route oral
# condition context: in vivo
observation type: MRT

>>> reported("CN(C)[C@H](CS(C)(=O)=O)c1ccc(-c2ccc3ncnc(Nc4ccc(OCc5cccc(F)c5)c(Cl)c4)c3c2)o1")
"6.6 h"

###

The following compounds are listed with their measured IC50 values.
# subject of test: UniProtKB P35968
# Sequence (P35968 whole entry): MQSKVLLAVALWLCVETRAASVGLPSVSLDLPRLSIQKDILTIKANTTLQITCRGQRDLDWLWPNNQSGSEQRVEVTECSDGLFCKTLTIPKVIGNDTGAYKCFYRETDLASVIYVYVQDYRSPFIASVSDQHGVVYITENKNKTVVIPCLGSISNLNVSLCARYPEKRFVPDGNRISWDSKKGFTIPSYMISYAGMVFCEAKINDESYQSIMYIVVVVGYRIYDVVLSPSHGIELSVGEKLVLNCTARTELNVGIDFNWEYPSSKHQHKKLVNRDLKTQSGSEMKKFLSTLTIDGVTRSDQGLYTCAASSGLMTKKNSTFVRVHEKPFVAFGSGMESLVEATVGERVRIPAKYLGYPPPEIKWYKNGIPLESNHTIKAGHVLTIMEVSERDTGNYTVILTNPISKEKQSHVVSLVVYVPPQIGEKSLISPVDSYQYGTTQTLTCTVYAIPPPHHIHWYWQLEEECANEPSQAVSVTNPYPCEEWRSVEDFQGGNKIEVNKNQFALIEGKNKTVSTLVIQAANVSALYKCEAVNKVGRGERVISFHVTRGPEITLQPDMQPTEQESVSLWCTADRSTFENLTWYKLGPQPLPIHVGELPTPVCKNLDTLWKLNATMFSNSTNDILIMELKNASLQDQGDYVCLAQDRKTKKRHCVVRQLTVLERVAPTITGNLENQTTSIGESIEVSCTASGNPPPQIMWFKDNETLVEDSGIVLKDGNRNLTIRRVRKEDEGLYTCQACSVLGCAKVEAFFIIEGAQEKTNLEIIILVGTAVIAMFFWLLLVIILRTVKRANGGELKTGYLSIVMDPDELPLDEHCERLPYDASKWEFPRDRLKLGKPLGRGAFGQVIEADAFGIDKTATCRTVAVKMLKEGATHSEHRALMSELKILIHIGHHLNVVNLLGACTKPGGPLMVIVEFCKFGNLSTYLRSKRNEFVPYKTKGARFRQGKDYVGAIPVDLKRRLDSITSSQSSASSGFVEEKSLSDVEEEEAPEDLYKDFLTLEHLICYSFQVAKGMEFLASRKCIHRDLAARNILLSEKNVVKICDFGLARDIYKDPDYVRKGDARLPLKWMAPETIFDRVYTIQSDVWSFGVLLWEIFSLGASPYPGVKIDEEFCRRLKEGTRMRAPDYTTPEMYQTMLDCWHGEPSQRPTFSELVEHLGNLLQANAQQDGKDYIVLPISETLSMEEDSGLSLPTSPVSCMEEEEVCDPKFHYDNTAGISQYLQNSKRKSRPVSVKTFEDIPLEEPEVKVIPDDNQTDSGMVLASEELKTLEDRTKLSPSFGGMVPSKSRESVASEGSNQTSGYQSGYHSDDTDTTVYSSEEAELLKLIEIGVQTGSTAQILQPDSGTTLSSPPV
observation type: IC50

>>> reported("CNC(CS(C)(=O)=O)c1ccc(-c2ccc3ncnc(Nc4ccc(OCc5cccc(F)c5)c(Cl)c4)c3c2)o1 (racemic)")
"> 200 µM"
>>> reported("CN(C)[C@H](CS(C)(=O)=O)c1ccc(-c2ccc3ncnc(Nc4ccc(OCc5cccc(F)c5)c(Cl)c4)c3c2)o1")
"> 200 µM"
>>> reported("CS(=O)(=O)C[C@H](N)c1ccc(-c2ccc3ncnc(Nc4ccc(OCc5cccc(F)c5)c(Cl)c4)c3c2)o1")
"> 200 µM"
>>> reported("CN(C)[C@@H](CS(C)(=O)=O)c1ccc(-c2ccc3ncnc(Nc4ccc(OCc5cccc(F)c5)c(Cl)c4)c3c2)o1")
"> 200 µM"
>>> reported("CCNC(CS(C)(=O)=O)c1ccc(-c2ccc3ncnc(Nc4ccc(OCc5cccc(F)c5)c(Cl)c4)c3c2)o1 (racemic)")
"> 200 µM"

###

pIC50: −log10 of the molar value.
Let's go through some recorded pIC50 values for Receptor tyrosine-protein kinase erbB-2 (Homo sapiens) together.
observation type: pIC50

>>> reported("CS(=O)(=O)CC(NC1CCCCC1)c1ccc(-c2ccc3ncnc(Nc4ccc(OCc5cccc(F)c5)c(Cl)c4)c3c2)o1 (racemic)")
7.23
>>> reported("CCCCOC(=O)N[C@H](CS(C)(=O)=O)c1ccc(-c2ccc3ncnc(Nc4ccc(OCc5cccc(F)c5)c(Cl)c4)c3c2)o1")
6.79
>>> reported("CN(C)[C@@H](CS(C)(=O)=O)c1ccc(-c2ccc3ncnc(Nc4ccc(OCc5cccc(F)c5)c(Cl)c4)c3c2)o1")
7.58
>>> reported("CS(=O)(=O)CCNC(CS(C)(=O)=O)c1ccc(-c2ccc3ncnc(Nc4ccc(OCc5cccc(F)c5)c(Cl)c4)c3c2)o1 (racemic)")
7.28
>>> reported("CS(=O)(=O)C[C@H](N)c1ccc(-c2ccc3ncnc(Nc4ccc(OCc5cccc(F)c5)c(Cl)c4)c3c2)o1")
7.97
>>> reported("CS(=O)(=O)CC(N)c1ccc(-c2ccc3ncnc(Nc4ccc(OCc5cccc(F)c5)c(Cl)c4)c3c2)o1 (racemic)")
8.47
>>> reported("CC(C)NC(CS(C)(=O)=O)c1ccc(-c2ccc3ncnc(Nc4ccc(OCc5cccc(F)c5)c(Cl)c4)c3c2)o1 (racemic)")
7.32
>>> reported("CCOC(=O)N[C@H](CS(C)(=O)=O)c1ccc(-c2ccc3ncnc(Nc4ccc(OCc5cccc(F)c5)c(Cl)c4)c3c2)o1")
6.82
